Test system: K-562
procedure-summary: NCI panel growth inhibition, sulforhodamine B
Assay type: cell-based
condition: Homo sapiens, K562; K-562, Leukemia; drug for last 48 h of 72 h
readout-kind: pIC50
// pIC50 is dimensionless: -log10 of concentration (M)

Examples with their reported pIC50 follow.
- molecule: "Nc1ccc(Oc2ccc(C34CC5CC(C3)CC(c3ccc(Oc6ccc(N)cc6C(F)(F)F)cc3)(C5)C4)cc2)c(C(F)(F)F)c1 [1,3-DPA/CF3/NH2]"
  system: "K-562"
  pIC50: 4.36
- molecule: "Nc1ccc(Oc2ccc(C3(c4ccc(Oc5ccc(N)cc5)cc4)C4CC5CC(C4)CC3C5)cc2)cc1 [2,2-DPAONH2]"
  system: "K-562"
  pIC50: 5.41

Note: attention shifts to another entry.
Which value of pIC50 has been reported for Nc1ccc(Oc2ccc(C34CC5CC(C3)CC(c3ccc(Oc6ccc(N)c(O)c6)cc3)(C5)C4)cc2)cc1O [1,3-DPA/OH/NH2] in the records?
5.46

---

Test system: OVCAR-3
procedure-summary: NCI panel growth inhibition, sulforhodamine B
Assay type: cell-based
condition: Homo sapiens; OVCAR-3, Ovarian cancer; drug for last 48 h of 72 h
readout-kind: IC50 (nM)
Provide only the numeric value, understood in nM.

Examples with their reported IC50 follow.
- mol: "Nc1ccc(Oc2ccc(C34CC5CC(C3)CC(c3ccc(Oc6ccc(N)c(O)c6)cc3)(C5)C4)cc2)cc1O"
  unit-tag: "nM"
  IC50: 1850
- mol: "Nc1ccc(Oc2ccc(C34CC5CC(C3)CC(c3ccc(Oc6ccc(N)cc6C(F)(F)F)cc3)(C5)C4)cc2)c(C(F)(F)F)c1"
  unit-tag: "nM"
  IC50: 17900

Note: attention shifts to another entry.
Which value of IC50 has been reported for `Nc1ccc(Oc2ccc(C3(c4ccc(Oc5ccc(N)cc5)cc4)C4CC5CC(C4)CC3C5)cc2)cc1` in the records?
2580

---

Entries annotated with measured pIC50
Test system: COLO 205
procedure-summary: NCI panel growth inhibition, sulforhodamine B
Assay type: cell-based
condition: Homo sapiens; COLO 205, Colon cancer; drug for last 48 h of 72 h
// pIC50 is dimensionless: -log10 of concentration (M)

Examples with their reported pIC50 follow.
- mol: "Nc1ccc(Oc2ccc(C3(c4ccc(Oc5ccc(N)cc5)cc4)C4CC5CC(C4)CC3C5)cc2)cc1"
  readout-kind: "pIC50"
  value: 5.57
- mol: "Nc1ccc(Oc2ccc(C3(c4ccc(Oc5ccc(N)c(O)c5)cc4)C4CC5CC(C4)CC3C5)cc2)cc1O"
  readout-kind: "pIC50"
  value: 6.32
- mol: "Nc1ccc(Oc2ccc(C34CC5CC(C3)CC(c3ccc(Oc6ccc(N)c(O)c6)cc3)(C5)C4)cc2)cc1O"
  readout-kind: "pIC50"
  value: 5.74
- mol: "Nc1ccc(C23CC4CC(C2)CC(c2ccc(N)cc2)(C4)C3)cc1"
  readout-kind: "pIC50"
  value: 5.64
- mol: "Nc1ccc(Oc2ccc(C34CC5CC(C3)CC(c3ccc(Oc6ccc(N)cc6C(F)(F)F)cc3)(C5)C4)cc2)c(C(F)(F)F)c1"
  readout-kind: "pIC50"
  value: 4.72

State its pIC50 on COLO 205: `Nc1ccc(Oc2ccc(C34CC5CC(C3)CC(c3ccc(Oc6ccc(N)cc6)cc3)(C5)C4)cc2)cc1`
4.88

---

Entries annotated with measured pIC50
System: BT-549
procedure-summary: NCI panel growth inhibition, sulforhodamine B
Format: cell-based, human
condition: Homo sapiens, BT-549, BT-549, Breast cancer; drug for last 48 h of 72 h
// pIC50 is dimensionless: -log10 of concentration (M)

Which value of pIC50 has been reported for `Nc1ccc(Oc2ccc(C3(c4ccc(Oc5ccc(N)cc5)cc4)C4CC5CC(C4)CC3C5)cc2)cc1` in the records?
5.37

Which value of pIC50 has been reported for `Nc1ccc(Oc2ccc(C34CC5CC(C3)CC(c3ccc(Oc6ccc(N)cc6C(F)(F)F)cc3)(C5)C4)cc2)c(C(F)(F)F)c1` in the records?
4.66

---

Test system: MDA-N
procedure-summary: NCI panel growth inhibition, sulforhodamine B
Type: cell-based
condition: Homo sapiens, Breast cancer, drug for last 48 h of 72 h
readout-kind: IC50 (µM)
Provide only the numeric value, understood in µM.

Examples with their reported IC50 follow.
- mol: "Nc1ccc(Oc2ccc(C3(c4ccc(Oc5ccc(N)cc5)cc4)C4CC5CC(C4)CC3C5)cc2)cc1"
  value: 2.74
- mol: "Nc1ccc(C23CC4CC(C2)CC(c2ccc(N)cc2)(C4)C3)cc1"
  value: 37.7

Which value of IC50 has been reported for `Nc1ccc(C2(c3ccc(N)cc3)C3CC4CC(C3)CC2C4)cc1` in the records?
18.6
